Each recorded value in this set is attributed to the NIST ThermoML archive (doi:10.1016/j.jct.2017.11.017).

# METHOD_SUMMARY: activity coefficient (dimensionless); of the first substance listed, at infinite dilution; xn = mol fraction of the nth substance listed
# CONDITIONS: 338.15 K; 101.33 kPa; Liquid; Chromatography; x1 = 0
Everything with activity coefficient lower than 20 is -1; everything else, including exactly 20, is 1.

Worked examples follow.
COMPOUND: O [water] + C[n+]1ccn(CCCO)c1.N#CN=C=[N-]
ASSIGNED_LABEL: -1
//
COMPOUND: CCCC(=O)OC [methyl butanoate] + C[n+]1ccn(CCCO)c1.N#CN=C=[N-]
ASSIGNED_LABEL: -1
//
COMPOUND: CCO [ethanol] + C[n+]1ccn(CCCO)c1.N#CN=C=[N-]
ASSIGNED_LABEL: -1
//
COMPOUND: CCCCCCC [heptane] + C[n+]1ccn(CCCO)c1.N#CN=C=[N-]
ASSIGNED_LABEL: 1
//
COMPOUND: CC(C)CO [2-methyl-1-propanol] + C[N+]1(CCCO)CCOCC1.N#C[N-]C#N
ASSIGNED_LABEL: -1
//
COMPOUND: C1CCCCC1 [cyclohexane] + C[N+]1(CCCO)CCOCC1.N#C[N-]C#N
ASSIGNED_LABEL: 1
//
COMPOUND: Cc1ccc(C)cc1 [1,4-dimethylbenzene] + C[N+]1(CCCO)CCOCC1.N#C[N-]C#N
ASSIGNED_LABEL: 1
//
COMPOUND: C=C(C)c1ccccc1 [(1-methylethenyl)benzene] + C[n+]1ccn(CCCO)c1.N#CN=C=[N-]
ASSIGNED_LABEL: -1

Enquiry: In plain terms: is recorded activity coefficient at least 20 for Cc1ccc(C)cc1 [1,4-dimethylbenzene] + C[n+]1ccn(CCCO)c1.N#CN=C=[N-] ?
Return: -1

Enquiry: In plain terms: is recorded activity coefficient at least 20 for C#CCCCCCC [1-octyne] + C[N+]1(CCCO)CCOCC1.N#C[N-]C#N ?
Return: 1

Enquiry: In plain terms: is recorded activity coefficient at least 20 for CC(C)=O [acetone] + C[n+]1ccn(CCCO)c1.N#CN=C=[N-] ?
Return: -1

Enquiry: In plain terms: is recorded activity coefficient at least 20 for CCCCCCCC [octane] + C[N+]1(CCCO)CCOCC1.N#C[N-]C#N ?
Return: 1

Enquiry: In plain terms: is recorded activity coefficient at least 20 for C=CCCCCC [1-heptene] + C[n+]1ccn(CCCO)c1.N#CN=C=[N-] ?
Return: 1

Enquiry: In plain terms: is recorded activity coefficient at least 20 for CC#N [acetonitrile] + C[N+]1(CCCO)CCOCC1.N#C[N-]C#N ?
Return: -1

Enquiry: In plain terms: is recorded activity coefficient at least 20 for CC1CCCCC1 [methylcyclohexane] + C[n+]1ccn(CCCO)c1.N#CN=C=[N-] ?
Return: 1

Enquiry: In plain terms: is recorded activity coefficient at least 20 for COC(C)(C)C [2-methoxy-2-methylpropane] + C[n+]1ccn(CCCO)c1.N#CN=C=[N-] ?
Return: 1

Enquiry: In plain terms: is recorded activity coefficient at least 20 for C=COC(C)=O [vinyl acetate] + C[n+]1ccn(CCCO)c1.N#CN=C=[N-] ?
Return: -1

Enquiry: In plain terms: is recorded activity coefficient at least 20 for C1CCCCC1 [cyclohexane] + C[n+]1ccn(CCCO)c1.N#CN=C=[N-] ?
Return: 1

Enquiry: In plain terms: is recorded activity coefficient at least 20 for C1CCOC1 [tetrahydrofuran] + C[N+]1(CCCO)CCOCC1.N#C[N-]C#N ?
Return: -1

Enquiry: In plain terms: is recorded activity coefficient at least 20 for CCCOCCC [dipropyl ether] + C[n+]1ccn(CCCO)c1.N#CN=C=[N-] ?
Return: 1

Enquiry: In plain terms: is recorded activity coefficient at least 20 for Cc1ccccc1 [toluene] + C[N+]1(CCCO)CCOCC1.N#C[N-]C#N ?
Return: -1

Enquiry: In plain terms: is recorded activity coefficient at least 20 for C=CCCCCCC [oct-1-ene] + C[N+]1(CCCO)CCOCC1.N#C[N-]C#N ?
Return: 1
